- target under test: Arachidonate 5-lipoxygenase-activating protein (Homo sapiens) (UniProt P20292)
- Sequence (P20292 whole entry): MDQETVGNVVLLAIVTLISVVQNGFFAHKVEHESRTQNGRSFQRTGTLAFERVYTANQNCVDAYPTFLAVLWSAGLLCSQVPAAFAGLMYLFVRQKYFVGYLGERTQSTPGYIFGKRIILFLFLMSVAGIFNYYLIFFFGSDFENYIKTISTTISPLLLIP
- assay name: Inhibition of FLAP in A23187-stimulated human neutrophils assessed as remaining enzyme activity by measuring 5-LO product formation at 0.1 uM preincubated for 15 mins followed by A23187 and arachidonic acid addition and measured after 10 mins by UV based RP-HPLC analysis (reference value: 100%)
Would you mind labelling by Activity? At or over 70% is Condition met, under is Condition not met.

compound: CC(C)Cc1ccc(C(C)c2nc3cc(OCC(=O)O)ccc3n2Cc2ccccc2Cl)cc1 (centres undefined)
target under test: Arachidonate 5-lipoxygenase-activating protein (Homo sapiens) (UniProt P20292)
cat: Condition not met
--
compound: CC(c1ccc(CC(C)(C)C)cc1)c1nc2cc(C#N)ccc2n1Cc1ccccc1Cl (centres undefined)
target under test: Arachidonate 5-lipoxygenase-activating protein (Homo sapiens) (UniProt P20292)
cat: Condition met
--
compound: N#Cc1ccc2c(c1)nc(CCc1ccc(-c3ccc(N)nn3)cc1)n2Cc1ccccc1Cl
target under test: Arachidonate 5-lipoxygenase-activating protein (Homo sapiens) (UniProt P20292)
cat: Condition met
--
compound: CC(Cc1ccc(-c2cnc(N)nc2)cc1)c1nc2cc(C#N)ccc2n1Cc1ccccc1Cl (centres undefined)
target under test: Arachidonate 5-lipoxygenase-activating protein (Homo sapiens) (UniProt P20292)
cat: Condition met
--
compound: CC(C)Cc1ccc(C(C)c2nc3c(CCC(=O)O)cccc3n2Cc2ccccc2Cl)cc1 (centres undefined)
target under test: Arachidonate 5-lipoxygenase-activating protein (Homo sapiens) (UniProt P20292)
cat: Condition met
--
compound: CC(C)Cc1ccc(C(C)c2nc3cc(C(N)=O)ccc3n2Cc2ccccc2Cl)cc1 (centres undefined)
target under test: Arachidonate 5-lipoxygenase-activating protein (Homo sapiens) (UniProt P20292)
cat: Condition not met
--
compound: CC(C)Cc1ccc(C(C)c2nc3cc(S(N)(=O)=O)ccc3n2Cc2ccccc2Cl)cc1 (centres undefined)
target under test: Arachidonate 5-lipoxygenase-activating protein (Homo sapiens) (UniProt P20292)
cat: Condition met
--
compound: CC(C)Cc1ccc(C(C)c2nc3cc(-c4nnn[nH]4)ccc3n2Cc2ccccc2Cl)cc1 (centres undefined)
target under test: Arachidonate 5-lipoxygenase-activating protein (Homo sapiens) (UniProt P20292)
cat: Condition met
--
compound: CC(C)Cc1ccc(C(C)c2nc3c(C(=O)O)cccc3n2Cc2ccccc2Cl)cc1 (centres undefined)
target under test: Arachidonate 5-lipoxygenase-activating protein (Homo sapiens) (UniProt P20292)
cat: Condition met
--
compound: CC(C)Cc1ccc(C(C)c2nc3cc(-c4ccccc4C(=O)O)ccc3n2Cc2ccccc2Cl)cc1 (centres undefined)
target under test: Arachidonate 5-lipoxygenase-activating protein (Homo sapiens) (UniProt P20292)
cat: Condition met
--
compound: CC(C)Cc1ccc(C(C)c2nc3cc(-c4n[nH]c(=O)o4)ccc3n2Cc2ccccc2Cl)cc1 (centres undefined)
target under test: Arachidonate 5-lipoxygenase-activating protein (Homo sapiens) (UniProt P20292)
cat: Condition not met
--
compound: Cc1nc(-c2ccc3c(c2)nc(C(C)c2ccc(CC(C)C)cc2)n3Cc2ccccc2Cl)no1 (centres undefined)
target under test: Arachidonate 5-lipoxygenase-activating protein (Homo sapiens) (UniProt P20292)
cat: Condition met
--
compound: CCC(C)c1ccc(C(C)c2nc3cc(C#N)ccc3n2Cc2ccccc2Cl)cc1 (centres undefined)
target under test: Arachidonate 5-lipoxygenase-activating protein (Homo sapiens) (UniProt P20292)
cat: Condition met
--
compound: CC(C)Cc1ccc(C(C)c2nc3cc(-c4n[nH]c(=S)o4)ccc3n2Cc2ccccc2Cl)cc1 (centres undefined)
target under test: Arachidonate 5-lipoxygenase-activating protein (Homo sapiens) (UniProt P20292)
cat: Condition not met
--
compound: CC(C)CCc1ccc(C(C)c2nc3cc(C#N)ccc3n2Cc2ccccc2Cl)cc1 (centres undefined)
target under test: Arachidonate 5-lipoxygenase-activating protein (Homo sapiens) (UniProt P20292)
cat: Condition met
--
compound: N#Cc1ccc2c(c1)nc(CCc1ccc(-c3cnc(N)nc3)cc1)n2Cc1ccccc1Cl
target under test: Arachidonate 5-lipoxygenase-activating protein (Homo sapiens) (UniProt P20292)
cat: Condition met
--
compound: N#Cc1ccc2c(c1)nc(NCCc1c[nH]c3ccccc13)n2Cc1ccccc1Cl
target under test: Arachidonate 5-lipoxygenase-activating protein (Homo sapiens) (UniProt P20292)
cat: Condition met
--
compound: N#Cc1ccc2c(c1)nc(NCc1ccc3cc[nH]c3c1)n2Cc1ccccc1Cl
target under test: Arachidonate 5-lipoxygenase-activating protein (Homo sapiens) (UniProt P20292)
cat: Condition met
--
compound: N#Cc1ccc2c(c1)nc(CCc1ccc(-c3ccc(N)nc3)cc1)n2Cc1ccccc1Cl
target under test: Arachidonate 5-lipoxygenase-activating protein (Homo sapiens) (UniProt P20292)
cat: Condition met
--
compound: CC(C)Cc1ccc(C(C)c2nc3cc(-c4nnco4)ccc3n2Cc2ccccc2Cl)cc1 (centres undefined)
target under test: Arachidonate 5-lipoxygenase-activating protein (Homo sapiens) (UniProt P20292)
cat: Condition not met
--
compound: CC(C)Oc1ccc(-c2nc3cc(C#N)ccc3n2Cc2ccccc2Cl)cc1
target under test: Arachidonate 5-lipoxygenase-activating protein (Homo sapiens) (UniProt P20292)
cat: Condition met
--
compound: CC(C)Cc1ccc(C(C)c2nc3cc(-c4cccc(C(=O)O)c4)ccc3n2Cc2ccccc2Cl)cc1 (centres undefined)
target under test: Arachidonate 5-lipoxygenase-activating protein (Homo sapiens) (UniProt P20292)
cat: Condition not met
--
compound: CC(C)Cc1ccc(C(C)c2nc3cc(C(N)=S)ccc3n2Cc2ccccc2Cl)cc1 (centres undefined)
target under test: Arachidonate 5-lipoxygenase-activating protein (Homo sapiens) (UniProt P20292)
cat: Condition not met
--
compound: CC(C)Cc1ccc(C(C)c2nc3cc(CC(=O)O)ccc3n2Cc2ccccc2Cl)cc1 (centres undefined)
target under test: Arachidonate 5-lipoxygenase-activating protein (Homo sapiens) (UniProt P20292)
cat: Condition met
--
compound: CC(C)Cc1ccc(C(C)c2nc3cc(-c4ccc(C(=O)O)cc4)ccc3n2Cc2ccccc2Cl)cc1 (centres undefined)
target under test: Arachidonate 5-lipoxygenase-activating protein (Homo sapiens) (UniProt P20292)
cat: Condition not met
--
compound: CC(C)Cc1ccc(C(C)c2nc3cc(OC(C)(C)C(=O)O)ccc3n2Cc2ccccc2Cl)cc1 (centres undefined)
target under test: Arachidonate 5-lipoxygenase-activating protein (Homo sapiens) (UniProt P20292)
cat: Condition met
--
compound: CC(C)Cc1ccc(C(C)c2nc3cc(-c4noc(=O)[nH]4)ccc3n2Cc2ccccc2Cl)cc1 (centres undefined)
target under test: Arachidonate 5-lipoxygenase-activating protein (Homo sapiens) (UniProt P20292)
cat: Condition met
--
compound: N#Cc1ccc2c(c1)nc(NCc1ccc3[nH]ccc3c1)n2Cc1ccccc1Cl
target under test: Arachidonate 5-lipoxygenase-activating protein (Homo sapiens) (UniProt P20292)
cat: Condition met
--
compound: CC(C)Cc1ccc(-c2nc3cc(C#N)ccc3n2Cc2ccccc2Cl)cc1
target under test: Arachidonate 5-lipoxygenase-activating protein (Homo sapiens) (UniProt P20292)
cat: Condition met
--
compound: CC(C)Cc1ccc(C(C)c2nc3cc(-c4nc(C(=O)O)cs4)ccc3n2Cc2ccccc2Cl)cc1 (centres undefined)
target under test: Arachidonate 5-lipoxygenase-activating protein (Homo sapiens) (UniProt P20292)
cat: Condition met
--
compound: N#Cc1ccc2c(c1)nc(CCc1ccc(-c3cnc(N)cn3)cc1)n2Cc1ccccc1Cl
target under test: Arachidonate 5-lipoxygenase-activating protein (Homo sapiens) (UniProt P20292)
cat: Condition met
--
compound: CC(C)Cc1ccc(C(C)c2nc3cc(CCC(=O)O)ccc3n2Cc2ccccc2Cl)cc1 (centres undefined)
target under test: Arachidonate 5-lipoxygenase-activating protein (Homo sapiens) (UniProt P20292)
cat: Condition not met
--
compound: CC(C)Cc1ccc(C(C)c2nc3c(CC(=O)O)cccc3n2Cc2ccccc2Cl)cc1 (centres undefined)
target under test: Arachidonate 5-lipoxygenase-activating protein (Homo sapiens) (UniProt P20292)
cat: Condition met
